# target: full length AKT E17K (Homo sapiens, UniProt P31749, E17K)
# Construct: host or cells: HEK-293 (ATCC CRL-1573)
# Sequence (P31749 whole entry E17K): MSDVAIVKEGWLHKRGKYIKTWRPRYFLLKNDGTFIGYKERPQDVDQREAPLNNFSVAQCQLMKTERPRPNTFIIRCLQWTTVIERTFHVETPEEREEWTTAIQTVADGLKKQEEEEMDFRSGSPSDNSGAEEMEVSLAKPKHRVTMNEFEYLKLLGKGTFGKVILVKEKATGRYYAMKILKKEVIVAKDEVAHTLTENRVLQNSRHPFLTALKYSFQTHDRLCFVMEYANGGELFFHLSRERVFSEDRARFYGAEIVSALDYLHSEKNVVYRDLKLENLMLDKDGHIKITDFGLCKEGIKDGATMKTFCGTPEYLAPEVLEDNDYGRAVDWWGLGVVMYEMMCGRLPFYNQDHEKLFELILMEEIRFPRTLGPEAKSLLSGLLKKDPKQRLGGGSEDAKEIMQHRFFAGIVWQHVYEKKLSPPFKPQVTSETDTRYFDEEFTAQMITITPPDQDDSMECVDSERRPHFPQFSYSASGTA
# protocol text: NanoBRET Target Engagement (TE) Assay
# Format: cell-based
# study conditions: competitive tracer displacement in living cells, read-out: AKT1 E17K IC50
assay endpoint: IC50

Solved cases (6 shown):
>  <given smiles>
N#Cc1ncnc(N2CCCC3(CCN(Cc4ccc(-n5c(-c6cccnc6N)nc6ccc(-c7ccccc7)nc65)cc4)CC3)C2)n1

>  <reported>
< 15 nM

$$$$
>  <given smiles>
N#Cc1cncnc1C(=O)N1CCN(Cc2ccc(-n3c(-c4cccnc4N)nc4ccc(-c5ccccc5)nc43)cc2)CC1

>  <reported>
600 to 10000 nM

$$$$
>  <given smiles>
N#Cc1cc(NCc2ccc(-n3c(-c4cccnc4N)nc4cccnc43)cc2)ncn1

>  <reported>
600 to 10000 nM

$$$$
>  <given smiles>
N#Cc1nccc(N2CCN(Cc3ccc(-n4c(-c5cccnc5N)nc5ccc(-c6ccc(F)cc6)nc54)cc3)CC2)n1

>  <reported>
15 to 60 nM

$$$$
>  <given smiles>
N#Cc1nnccc1C(=O)NC1CCN(Cc2ccc(-n3c(-c4cccnc4N)nc4ccc(-c5ccccc5)nc43)cc2)CC1

>  <reported>
15 to 60 nM

$$$$
>  <given smiles>
N#Cc1ccc(NC2CCN(Cc3ccc(-n4c(-c5cccnc5N)nc5ccc(-c6ccccc6)nc54)cc3)CC2)cn1

>  <reported>
15 to 60 nM

$$$$

Next molecule, please.
Please report IC50 for the following molecule: CC(=O)Nc1cccc(-c2ccc3nc(-c4cccnc4N)n(-c4ccc(CN5CCN(c6cnc(C#N)nc6)CC5)cc4)c3n2)c1
15 to 60 nM

----------
# target: full length AKT E17K (Homo sapiens, UniProt P31749, E17K)
# Construct: host or cells: HEK-293 (ATCC CRL-1573)
# protocol text: NanoBRET Target Engagement (TE) Assay
# Type: cell-based
# study conditions: competitive tracer displacement in living cells, read-out: AKT1 E17K IC50
IC50 values by entry

For N#Cc1ncnc(N2CC[C@@]3(CCN(Cc4ccc(-n5c(-c6cccnc6N)nc6ccc(-c7ccccc7)nc65)cc4)C3)C2)n1 , write its IC50.
< 15 nM

Please supply the value of reported IC50 for the item N#Cc1cc(C(=O)N2CCN(Cc3ccc(-n4c(-c5cccnc5N)nc5ccc(-c6ccccc6)nc54)cc3)CC2)ccn1
15 to 60 nM

Quick one: give measured IC50 for N#Cc1ncnc(N2CCN(Cc3ccc(-n4c(-c5cccnc5N)nc5ccc(-c6ccccc6Cl)nc54)cc3)CC2)n1
< 15 nM

Retrieve IC50 measured for CN(c1ncnc(C#N)n1)C1CCN(Cc2ccc(-n3c(-c4cccnc4N)nc4ccc(-c5ccccc5)nc43)cc2)CC1 and print it.
15 to 60 nM

----------
# target: full length AKT E17K (Homo sapiens, UniProt P31749, E17K)
# Construct: host or cells: HEK-293 (ATCC CRL-1573)
# protocol text: NanoBRET Target Engagement (TE) Assay
# Format: cell-based
# study conditions: competitive tracer displacement in living cells, read-out: AKT1 E17K IC50
assay endpoint: IC50

>  <compound>
N#Cc1cc(N2CCN(Cc3ccc(-n4c(-c5cccnc5N)nc5ccc(-c6ccccc6)nc54)cc3)CC2)cnn1 [Example 159]

>  <target>
full length AKT E17K (Homo sapiens, UniProt P31749, E17K)

>  <reported>
15 to 60 nM

$$$$
>  <compound>
C[C@H]1CN(Cc2ccc(-n3c(-c4cccnc4N)nc4ccc(-c5ccccc5)nc43)cc2)C[C@H](C)N1c1ncnc(C#N)n1 [Example 275]

>  <target>
full length AKT E17K (Homo sapiens, UniProt P31749, E17K)

>  <reported>
< 15 nM

$$$$
>  <compound>
N#Cc1cc(C(=O)NC2C3CCC2CN(Cc2ccc(-n4c(-c5cccnc5N)nc5ccc(-c6ccccc6)nc54)cc2)C3)ncn1 (stereo not shown) [Example 230]

>  <target>
full length AKT E17K (Homo sapiens, UniProt P31749, E17K)

>  <reported>
60 to 600 nM

$$$$

We next turn to a different compound, shown below.
Complete the entry with IC50 for N#Cc1cc(NC2CCN(Cc3ccc(-n4c(-c5cccnc5N)nc5ccc(C6CC6)nc54)cc3)CC2)ncn1 [Example 291]
15 to 60 nM

----------
# target: full length AKT E17K (Homo sapiens, UniProt P31749, E17K)
# Construct: host or cells: HEK-293 (ATCC CRL-1573)
# protocol text: NanoBRET Target Engagement (TE) Assay
# Assay type: cell-based
# study conditions: competitive displacement of tracer in cells, read-out: AKT1 E17K IC50
pIC50: −log10 of the molar value.
assay endpoint: pIC50

>  <given smiles>
Cn1cc(-c2ccc3nc(-c4cccnc4N)n(-c4ccc(CN5CCN(c6ccnc(C#N)n6)CC5)cc4)c3n2)ccc1=O

>  <target>
full length AKT E17K (Homo sapiens, UniProt P31749, E17K)

>  <reported>
6.22 to 7.22

$$$$
>  <given smiles>
N#Cc1cc2c(cn1)nc(-c1cccnc1N)n2-c1ccc(CN2CCC(Nc3ccnc(C#N)n3)CC2)cc1

>  <target>
full length AKT E17K (Homo sapiens, UniProt P31749, E17K)

>  <reported>
7.22 to 7.82

$$$$
>  <given smiles>
COc1ccncc1-c1ccc2nc(-c3cccnc3N)n(-c3ccc(CN4CCC(Nc5ccnc(C#N)n5)CC4)cc3)c2n1

>  <target>
full length AKT E17K (Homo sapiens, UniProt P31749, E17K)

>  <reported>
> 7.82

$$$$
>  <given smiles>
Cn1ccc(-c2ccc3nc(-c4cccnc4N)n(-c4ccc(CN5CCN(c6ccnc(C#N)n6)CC5)cc4)c3n2)cc1=O

>  <target>
full length AKT E17K (Homo sapiens, UniProt P31749, E17K)

>  <reported>
7.22 to 7.82

$$$$
>  <given smiles>
N#Cc1nccc(NC2CCN(Cc3ccc(-n4c(-c5cccnc5N)nc5ccc(-c6cnoc6)nc54)cc3)CC2)n1

>  <target>
full length AKT E17K (Homo sapiens, UniProt P31749, E17K)

>  <reported>
> 7.82

$$$$

Give me measured pIC50, please, for this compound: N#Cc1nccc(NC2CCN(Cc3ccc(-n4c(-c5cccnc5N)nc5ccc(C(F)(F)F)nc54)cc3)CC2)n1
> 7.82

Specify measured pIC50 for Cc1cccc(-c2ccc3nc(-c4cccnc4N)n(-c4ccc(CN5CCC(Nc6ccnc(C#N)n6)CC5)cc4)c3n2)c1 .
> 7.82

Note down pIC50 recorded for N#Cc1nccc(NC2CCN(Cc3ccc(-n4c(-c5cccnc5N)nc5ccc(-c6ccncc6F)nc54)cc3)CC2)n1
> 7.82

Look up and report measured pIC50 for this entry: Cc1cnc(-c2ccc3nc(-c4cccnc4N)n(-c4ccc(CN5CCC(Nc6ccnc(C#N)n6)CC5)cc4)c3n2)nc1
> 7.82

Tell me pIC50 reported for Cn1ccc(-c2ccc3nc(-c4cccnc4N)n(-c4ccc(CN5CCC(Nc6ccnc(C#N)n6)CC5)cc4)c3n2)cc1=O
> 7.82

Respond only with pIC50 recorded for N#Cc1nccc(NC2CCN(Cc3ccc(-n4c(-c5cccnc5N)nc5ccc(-c6ccncc6C#N)nc54)cc3)CC2)n1
> 7.82

Give reported pIC50 value for N#Cc1nccc(NN2CCN(Cc3ccc(-n4c(-c5cccnc5N)nc5ccc(-c6ccccc6)nc54)cc3)CC2)n1
> 7.82

Note pIC50 for the compound shown: Cc1cc(-c2ccc3nc(-c4cccnc4N)n(-c4ccc(CN5CCC(Nc6ccnc(C#N)n6)CC5)cc4)c3n2)ccn1
> 7.82

Answer with the recorded pIC50 for the compound listed here: N#Cc1nccc(NC2CCN(Cc3ccc(-n4c(-c5cccnc5N)nc5ccc(-c6cnn(C7CC7)c6)nc54)cc3)CC2)n1
> 7.82

----------
# target: full length AKT E17K (Homo sapiens, UniProt P31749, E17K)
# Construct: host or cells: HEK-293 (ATCC CRL-1573)
# protocol text: NanoBRET Target Engagement (TE) Assay
# Format: cell-based
# study conditions: competitive tracer displacement in living cells, read-out: AKT1 E17K IC50
pIC50: −log10 of the molar value.
Recorded pIC50, one value per entry.

Answered examples (3):
>  <molecule>
Cn1cccc(-c2ccc3nc(-c4cccnc4N)n(-c4ccc(CN5CCN(c6ccnc(C#N)n6)CC5)cc4)c3n2)c1=O [Example 260]

>  <pIC50>
7.22 to 7.82

$$$$
>  <molecule>
N#Cc1cncc(N2CCN(Cc3ccc(-n4c(-c5cccnc5N)nc5ccc(-c6ccccc6)nc54)cc3)CC2)n1 [Example 67]

>  <pIC50>
6.22 to 7.22

$$$$
>  <molecule>
N#Cc1nc2cc(F)cc(C(=O)NC3CCN(Cc4ccc(-n5c(-c6cccnc6N)nc6ccc(-c7ccccc7)nc65)cc4)CC3)c2s1 [Example 182]

>  <pIC50>
6.22 to 7.22

$$$$

Okay, next one:
Specify pIC50 for C[C@@H]1CN(Cc2ccc(-n3c(-c4cccnc4N)nc4ccc(-c5ccccc5)nc43)cc2)CCN1c1ccnc(C#N)n1 [Example 225] and stop.
6.22 to 7.22

Just for reference, patent US12209087B2 is where these values come from.
